Where do the numbers come from? From ChEMBL document CHEMBL4699433.

# protocol_summary: Protein binding in human plasma assessed as free fraction
# Format: ADME, cell-free
measured_metric: fraction unbound

Task: Query (molecule): "Cc1nc2c(=O)n(C3CC3)c3c(Cl)c(N4CC[C@@H]([C@H](C)N)C4)c(F)cc3c2o1" ; field requested: fraction unbound
Output: 0.244

---

# protocol_summary: Apparent permeability in human Caco2 cells
# Assay type: ADME, cell-based
# applied_conditions: Caco-2
measured_metric: Papp (×10⁻⁶ cm/s)
Report as a plain number; the unit ×10⁻⁶ cm/s is understood.

Task: Give the measured Papp of "Cc1nc2c(=O)n(C3CC3)c3c(Cl)c(N4CC[C@@H]([C@H](C)N)C4)c(F)cc3c2o1" .
Output: 20.7

---

# protocol_summary: Kinetic solubility of compound at pH 7.4
# Format: physicochemical
# applied_conditions: buffer, read-out: Kinetic_solubility
measured_metric: solubility kinetic

Task: Requested field: solubility kinetic. Item: "Cc1nc2c(=O)n(C3CC3)c3c(Cl)c(N4CC[C@@H]([C@H](C)N)C4)c(F)cc3c2o1"
Output: > 100 µM
